experimental_target: HLA-A*02:01
measurement_description: IEDB peptide-MHC binding, purified MHC/competitive/radioactivity; bounds were set here for any values at or beyond the usual limits of such assays
run_conditions: source organism: Vaccinia virus WR
pIC50: −log10 of the molar value.
property_label: pIC50

{"sequence_string": "KIFYKHIHKI", "quantitative_readout": 6.27}
{"sequence_string": "ALATFTVNI", "quantitative_readout": 9.22}
{"sequence_string": "SMICLSLILA", "quantitative_readout": 7.00}
{"sequence_string": "YLDDHRYLFI", "quantitative_readout": 7.92}
{"sequence_string": "SILISLTNEI", "quantitative_readout": 6.55}
{"sequence_string": "ALYYVHSLL", "quantitative_readout": 6.64}
{"sequence_string": "FQYLLPGFVL", "quantitative_readout": 7.43}
{"sequence_string": "VTLLCVLPAV", "quantitative_readout": 8.42}
{"sequence_string": "TLTNVVNIST", "quantitative_readout": 5.91}
{"sequence_string": "KTIISEEYL", "quantitative_readout": 6.16}
{"sequence_string": "FTLNHVLAL", "quantitative_readout": 8.82}
{"sequence_string": "VMVTITQNV", "quantitative_readout": 7.43}
{"sequence_string": "ITDDSDDYEL", "quantitative_readout": 5.76}
{"sequence_string": "LMSNIKTMMI", "quantitative_readout": 5.81}
{"sequence_string": "CTANSWNVI", "quantitative_readout": 6.10}
{"sequence_string": "TISVVTLLCV", "quantitative_readout": 5.47}
{"sequence_string": "LIMYSVIGV", "quantitative_readout": 9.26}
{"sequence_string": "YIIKNTFNV", "quantitative_readout": 9.27}
{"sequence_string": "NLFDIPLLT", "quantitative_readout": 8.00}

----------
experimental_target: HLA-A*02:02
measurement_description: IEDB peptide-MHC binding, cellular MHC/competitive/fluorescence; bounds were set here for any values at or beyond the usual limits of such assays
run_conditions: source organism: Vaccinia virus WR
pIC50: −log10 of the molar value.
property_label: pIC50

{"sequence_string": "PLSPDTCLLA", "experimental_target": "HLA-A*02:02", "rel": "=", "quantitative_readout": 4.95}
{"sequence_string": "ALEPRKEIDV", "experimental_target": "HLA-A*02:02", "rel": "=", "quantitative_readout": 5.08}
{"sequence_string": "NTITTFIPI", "experimental_target": "HLA-A*02:02", "rel": "=", "quantitative_readout": 4.81}
{"sequence_string": "DINVIGLIV", "experimental_target": "HLA-A*02:02", "rel": "=", "quantitative_readout": 5.01}
{"sequence_string": "LIYYQNEVT", "experimental_target": "HLA-A*02:02", "rel": "=", "quantitative_readout": 4.85}
{"sequence_string": "KIQLFSDFTI", "experimental_target": "HLA-A*02:02", "rel": "≤", "quantitative_readout": 4.15}
{"sequence_string": "ITRLEVIGL", "experimental_target": "HLA-A*02:02", "rel": "=", "quantitative_readout": 5.26}
{"sequence_string": "ETIQKDINI", "experimental_target": "HLA-A*02:02", "rel": "=", "quantitative_readout": 4.44}
{"sequence_string": "IAEYIAGLKI", "experimental_target": "HLA-A*02:02", "rel": "=", "quantitative_readout": 4.54}
{"sequence_string": "AMHDKKIDI", "experimental_target": "HLA-A*02:02", "rel": "=", "quantitative_readout": 4.76}
{"sequence_string": "RTRLYDYFT", "experimental_target": "HLA-A*02:02", "rel": "=", "quantitative_readout": 5.15}
{"sequence_string": "LVQYRILPM", "experimental_target": "HLA-A*02:02", "rel": "=", "quantitative_readout": 4.83}
{"sequence_string": "AAAKTPVIVV", "experimental_target": "HLA-A*02:02", "rel": "=", "quantitative_readout": 5.09}
{"sequence_string": "PVDLVKSSFV", "experimental_target": "HLA-A*02:02", "rel": "=", "quantitative_readout": 5.18}
{"sequence_string": "MAFILGIII", "experimental_target": "HLA-A*02:02", "rel": "=", "quantitative_readout": 5.02}
{"sequence_string": "IVQSVLRDI", "experimental_target": "HLA-A*02:02", "rel": "≤", "quantitative_readout": 4.15}
{"sequence_string": "DISDVKVLAA", "experimental_target": "HLA-A*02:02", "rel": "=", "quantitative_readout": 4.47}
{"sequence_string": "STQQNKLVI", "experimental_target": "HLA-A*02:02", "rel": "=", "quantitative_readout": 4.28}
{"sequence_string": "AVTLNRIKI", "experimental_target": "HLA-A*02:02", "rel": "=", "quantitative_readout": 4.96}
{"sequence_string": "STFNMWREI", "experimental_target": "HLA-A*02:02", "rel": "=", "quantitative_readout": 5.24}
{"sequence_string": "DIIDLLLPST", "experimental_target": "HLA-A*02:02", "rel": "=", "quantitative_readout": 4.84}
{"sequence_string": "RINLLVQYGA", "experimental_target": "HLA-A*02:02", "rel": "=", "quantitative_readout": 4.99}
{"sequence_string": "SARALKAYFT", "experimental_target": "HLA-A*02:02", "rel": "=", "quantitative_readout": 4.67}
{"sequence_string": "DITNILGGVL", "experimental_target": "HLA-A*02:02", "rel": "=", "quantitative_readout": 4.91}
{"sequence_string": "LAYYNSCML", "experimental_target": "HLA-A*02:02", "rel": "=", "quantitative_readout": 4.89}
{"sequence_string": "HQRRLVKLL", "experimental_target": "HLA-A*02:02", "rel": "=", "quantitative_readout": 4.80}
{"sequence_string": "LLTHGADPNA", "experimental_target": "HLA-A*02:02", "rel": "=", "quantitative_readout": 5.02}
{"sequence_string": "EAFETQSGAL", "experimental_target": "HLA-A*02:02", "rel": "=", "quantitative_readout": 5.07}
{"sequence_string": "AVIIMAINV", "experimental_target": "HLA-A*02:02", "rel": "=", "quantitative_readout": 5.04}
{"sequence_string": "TAATKRYPGV", "experimental_target": "HLA-A*02:02", "rel": "=", "quantitative_readout": 4.59}

----------
experimental_target: HLA-A*68:02
measurement_description: IEDB peptide-MHC binding, cellular MHC/competitive/fluorescence; bounds were set here for any values at or beyond the usual limits of such assays
run_conditions: source organism: Vaccinia virus WR
pIC50: −log10 of the molar value.

{"sequence_string": "DTIAHINTLI", "pIC50": "≤ 4.15"}
{"sequence_string": "KAMHDKKIDI", "pIC50": "≤ 4.15"}
{"sequence_string": "YIEDELRRA", "pIC50": "≤ 4.15"}
{"sequence_string": "KLPTWLGAA", "pIC50": "≤ 4.15"}
{"sequence_string": "EMKYALINLV", "pIC50": "≤ 4.15"}
{"sequence_string": "SMYTRLRQDT", "pIC50": "≤ 4.15"}
{"sequence_string": "LAEYIRHRNT", "pIC50": 4.28}
{"sequence_string": "KVTVPTNDHI", "pIC50": 5.18}
{"sequence_string": "YTGGYDVSL", "pIC50": 5.18}
{"sequence_string": "DLDKVYEIL", "pIC50": "≤ 4.15"}
{"sequence_string": "EILRNYLRL", "pIC50": 5.03}
{"sequence_string": "KLISEKETL", "pIC50": "≤ 4.15"}

----------
Overview of recorded IC50 for various sequences
experimental_target: HLA-A*26:01
measurement_description: IEDB peptide-MHC binding, cellular MHC/competitive/fluorescence; bounds were set here for any values at or beyond the usual limits of such assays
run_conditions: source organism: Vaccinia virus WR

{"sequence_string": "VQSVLRDISI", "IC50": "6.66 µM"}
{"sequence_string": "AQQFCQYLI", "IC50": "49 µM"}
{"sequence_string": "VQYRILPMII", "IC50": "≥ 70 µM"}
{"sequence_string": "QQFANVISKI", "IC50": "≥ 70 µM"}
{"sequence_string": "TQVKELGIAI", "IC50": "49.6 µM"}
{"sequence_string": "VQTIVFIWFI", "IC50": "16 µM"}
{"sequence_string": "LQDIVNEHDI", "IC50": "≥ 70 µM"}
{"sequence_string": "LQQNNSFII", "IC50": "11.5 µM"}
{"sequence_string": "EQRRSTIFDI", "IC50": "≥ 70 µM"}
{"sequence_string": "RQVSVKLLI", "IC50": "6.34 µM"}
{"sequence_string": "FQESFYEDI", "IC50": "≥ 70 µM"}
{"sequence_string": "CQCTVQEFI", "IC50": "24.8 µM"}
